Tested on: SIM-A9 cells
assay text: Anti-inflammation assay: TNF-α production from LPS stimulated SIM-A9 cells (ELISA)
Type: cell-based
condition notes: compound 2.7 μM; LPS stimulated SIM-A9 cells; read-out: TNF-α Inhibition
observed property: inhibition at 2.7 µM (%)

>>> measured_result("O=C(Nc1ccccc1)c1cc(C(=O)O)c(NCc2ccco2)cc1Cl [SIV-W179]")
22
>>> measured_result("O=C(O)c1cc(S(=O)(=O)N2CCCCC2)c(Cl)cc1NCc1ccco1 [WW096]")
11
>>> measured_result("Cc1ccc(CNS(=O)(=O)c2cc(C(=O)O)c(NCc3ccco3)cc2Cl)cc1 [WW065]")
20
>>> measured_result("CNS(=O)(=O)c1cc(-c2noc(=O)[nH]2)c(NCc2ccco2)cc1Cl [WW187]")
20
>>> measured_result("CNS(=O)(=O)c1cc(C(=O)OC)c(NCc2ccco2)cc1Cl [WW100]")
31
>>> measured_result("COC(=O)c1cc(S(N)(=O)=O)c(Cl)cc1NCc1ccco1 [WW-161]")
24
>>> measured_result("COc1ccc(C(=O)O)c(NCc2ccoc2)c1 [Compound 5-LV-56A]")
32
>>> measured_result("CNS(=O)(=O)c1cc(-c2nnn[nH]2)c(NCc2ccco2)cc1Cl [WW121]")
2
>>> measured_result("CCNC(=O)c1cc(C(=O)OC)c(NCc2ccco2)cc1Cl [SIV-W172]")
18
>>> measured_result("CNC(=O)c1cc(C(=O)O)c(NCc2ccco2)cc1Cl [SIV-W168]")
27
>>> measured_result("CNS(=O)(=O)c1cc(C(N)=O)c(NCc2ccco2)cc1Cl [WW101]")
27
>>> measured_result("O=C(O)c1ccc(Cl)cc1NCCc1ccccc1 [LD3-306, 4-Chloro-2-(phenethylamino)benzoic Acid]")
21
>>> measured_result("CNC(=O)c1cc(C(=O)OC)c(NCc2ccco2)cc1Cl [SIV-W155]")
20
>>> measured_result("COc1ccc(C(=O)O)c(NCc2ccccc2)c1 [Compound 5-LV-54B, 2-(Benzylamino)-4-methoxybenzoic Acid]")
30
>>> measured_result("O=C(O)c1ccc(Br)cc1NCc1ccco1 [WW073]")
27
>>> measured_result("COc1c(C)ccc(CNc2cc(F)ccc2C(O)C(F)(F)F)c1OC (centres unmarked) [WW-028]")
19.9
>>> measured_result("CN(C)C(=O)c1cc(C(=O)O)c(NCc2ccco2)cc1Cl [SIV-W173]")
25
>>> measured_result("COC(=O)c1cc(C(=O)Nc2ccccc2)c(Cl)cc1NCc1ccco1 [SIV-W178]")
12
>>> measured_result("CNC(=O)c1cc(S(=O)(=O)NC)c(Cl)cc1NCc1ccco1 [WW102]")
25
>>> measured_result("Cc1ccc(CNc2cc(F)ccc2C(O)C(F)(F)F)c(C)c1 (centres unmarked) [WW-024]")
11.2
